- TEST_TARGET: Amine oxidase [flavin-containing] A (Rattus norvegicus, UniProt P21396)
- Sequence (P21396 whole entry): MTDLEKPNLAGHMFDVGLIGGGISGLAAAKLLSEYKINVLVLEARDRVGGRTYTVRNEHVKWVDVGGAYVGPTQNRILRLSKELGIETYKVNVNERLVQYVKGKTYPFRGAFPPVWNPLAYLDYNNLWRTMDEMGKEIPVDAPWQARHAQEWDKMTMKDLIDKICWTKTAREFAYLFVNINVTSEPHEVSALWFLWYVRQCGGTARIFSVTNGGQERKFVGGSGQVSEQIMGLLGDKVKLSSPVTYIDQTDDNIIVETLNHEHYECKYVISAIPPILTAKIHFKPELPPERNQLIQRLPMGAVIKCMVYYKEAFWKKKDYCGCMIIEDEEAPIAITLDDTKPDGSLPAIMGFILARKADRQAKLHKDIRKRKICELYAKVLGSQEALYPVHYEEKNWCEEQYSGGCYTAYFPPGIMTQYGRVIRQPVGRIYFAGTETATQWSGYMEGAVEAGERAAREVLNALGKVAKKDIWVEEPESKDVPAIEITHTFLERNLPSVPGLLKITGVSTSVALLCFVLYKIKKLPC
EXPERIMENTAL_ENDPOINT: Ki
State the result as a value with its unit after it.

Consider the compound CCc1cccc2c1S(=O)(=O)c1ccccc1O2 . State its measured Ki.
10 nM
